studyTarget: UniProtKB Q9NYW2
Sequence (Q9NYW2 whole entry): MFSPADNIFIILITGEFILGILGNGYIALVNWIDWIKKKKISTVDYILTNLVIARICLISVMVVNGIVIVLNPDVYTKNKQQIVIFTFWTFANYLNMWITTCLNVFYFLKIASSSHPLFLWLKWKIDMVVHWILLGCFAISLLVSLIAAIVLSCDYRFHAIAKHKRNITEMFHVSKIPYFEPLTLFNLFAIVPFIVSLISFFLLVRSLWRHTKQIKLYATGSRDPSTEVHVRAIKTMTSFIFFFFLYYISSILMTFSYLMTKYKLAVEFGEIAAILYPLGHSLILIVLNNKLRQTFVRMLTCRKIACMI
experimentalDetails: hT2R8 antagonist high-throughput FLIPR assay, stable cell line with G16g44, agonist andrographolide
Format: cell-based
testParameters: table after Example 12-37; read-out: hT2R8 IC50
Provide the reported log10 IC50 of each item.
In plain terms, each number is the log10 of measured IC50 in µM.

Input line: Any idea what log10 IC50 was measured for Cc1noc(C)c1Cn1cc(N2C(=O)N(Cc3cccc(OCC(=O)O)c3)C(C)(C)C2=O)cn1 ?
Output line: 0.45

Input line: Any idea what log10 IC50 was measured for Cc1noc(C)c1Cn1cc(N2C(=O)N(Cc3ccccn3)C(C)(C)C2=O)cn1 ?
Output line: -0.59

Input line: Any idea what log10 IC50 was measured for Cc1noc(C)c1Cn1cc(N2C(=O)N(CCO)C(C)(C)C2=O)cn1 ?
Output line: -0.25

Input line: Any idea what log10 IC50 was measured for Cc1noc(C)c1Cn1cc(N2C(=O)N(Cc3c(F)cccc3F)C(C)(C)C2=O)cn1 ?
Output line: -1.00

Input line: Any idea what log10 IC50 was measured for COC(=O)c1cccc(CN2C(=O)N(c3cnn(Cc4c(C)noc4C)c3)C(=O)C2(C)C)c1 ?
Output line: -0.66

Input line: Any idea what log10 IC50 was measured for COc1ccccc1CCN1C(=O)N(c2cnn(Cc3c(C)noc3C)c2)C(=O)C1(C)C ?
Output line: -0.62

Input line: Any idea what log10 IC50 was measured for Cc1noc(C)c1Cn1cc(N2C(=O)N(Cc3cccc(OCCN(C)C)c3)C(C)(C)C2=O)cn1 ?
Output line: 0.32

Input line: Any idea what log10 IC50 was measured for Cc1cccc(C)c1CN1C(=O)N(c2cnn(Cc3c(C)noc3C)c2)C(=O)C1(C)C ?
Output line: 0.20

Input line: Any idea what log10 IC50 was measured for Cc1noc(C)c1Cn1cc(N2C(=O)N(Cc3ccn(C)n3)C(C)(C)C2=O)cn1 ?
Output line: -0.38

Input line: Any idea what log10 IC50 was measured for Cc1noc(C)c1Cn1cc(N2C(=O)N(CCc3ccc(F)cc3)C(C)(C)C2=O)cn1 ?
Output line: -0.48

Input line: Any idea what log10 IC50 was measured for COC(=O)c1ccc(CN2C(=O)N(c3cnn(Cc4c(C)noc4C)c3)C(=O)C2(C)C)cc1 ?
Output line: -0.64

Input line: Any idea what log10 IC50 was measured for COCc1ccc(CN2C(=O)N(c3cnn(Cc4c(C)noc4C)c3)C(=O)C2(C)C)cc1 ?
Output line: -0.55

Input line: Any idea what log10 IC50 was measured for Cc1cccc(CN2C(=O)N(c3cnn(Cc4c(C)noc4C)c3)C(=O)C2(C)C)c1F ?
Output line: -0.09

Input line: Any idea what log10 IC50 was measured for Cc1ccc(CN2C(=O)N(c3cnn(Cc4c(C)noc4C)c3)C(=O)C2(C)C)cc1 ?
Output line: -0.13

Input line: Any idea what log10 IC50 was measured for Cc1noc(C)c1Cn1cc(N2C(=O)N(Cc3ccc4c(c3)OCCO4)C(C)(C)C2=O)cn1 ?
Output line: -0.57

Input line: Any idea what log10 IC50 was measured for Cc1noc(C)c1Cn1cc(N2C(=O)N(CCc3ccccc3F)C(C)(C)C2=O)cn1 ?
Output line: -0.70
